test system: MDA-MB-231 breast; experiment: NCI tumour cell line growth inhibition, 48 h
experimental.readout: TGI

Dear colleague, I am looking for the recorded TGI of the following molecule: Cc1cc([C@H](C#N)c2nc3ccccc3[nH]2)nc(Cl)n1
> 100 µM

Dear colleague, I am looking for the recorded TGI of the following molecule: O=c1c(C=Nc2ccccc2Cl)c(O)n(-c2ccccc2)c(=O)n1-c1ccccc1
> 100 µM

Dear colleague, I am looking for the recorded TGI of the following molecule: COc1cc(S(=O)(=O)Nc2nc(-c3ccc(N4C(=O)CSC4c4cccs4)cc3)cs2)ccc1Cl (stereo not given)
> 100 µM

Dear colleague, I am looking for the recorded TGI of the following molecule: CC(C)(C)[Si](C)(C)O[C@@H](C(=O)OC1C=CCCC1)[C@@H](NC(=O)c1ccccc1)c1ccccc1 (stereo not given in full)
> 100 µM

Dear colleague, I am looking for the recorded TGI of the following molecule: CN1C2CCC1CC(CCOC(c1ccc(F)cc1)c1ccc(F)cc1)C2 (stereo not given)
29.7 µM

Dear colleague, I am looking for the recorded TGI of the following molecule: O=C(c1ccccc1)c1ccc2nc3n(c2c1)C(c1c(F)cccc1F)SC3 (stereo not given)
> 100 µM

Dear colleague, I am looking for the recorded TGI of the following molecule: Cc1ccc(-n2cnc3c(N)nc(N)nc32)cc1
> 100 µM

Dear colleague, I am looking for the recorded TGI of the following molecule: Cc1csc2nc3c(cnn3C)c(=S)n12
> 10 µM

Dear colleague, I am looking for the recorded TGI of the following molecule: CN1CCC2(CC1)SC[C@H]1C(=O)N(c3ccc(Cl)cc3)C(=O)N12
> 100 µM

Dear colleague, I am looking for the recorded TGI of the following molecule: COc1cc(S(=O)(=O)Nc2nc(-c3ccc(N4C(=O)C(CC(=O)O)SC4c4ccccc4O)cc3)cs2)ccc1Cl (stereo not given)
> 100 µM

---

tested on: CAKI-1 renal; experiment: NCI tumour cell line growth inhibition, 48 h
experimental.readout: GI50

Dear colleague, I am looking for the recorded GI50 of the following compound: O=c1c(Oc2ccc(F)cc2F)cc2cnc(NC3CCOCC3)nc2n1C1CCS(=O)(=O)CC1
> 25 µM

Dear colleague, I am looking for the recorded GI50 of the following compound: CC12OC(c3ccccc3)=CC(c3ccc(Cl)cc3)=C1C(c1ccccc1)=CC2=O (centres undefined)
> 100 µM

Dear colleague, I am looking for the recorded GI50 of the following compound: CSc1ccc(C2=NN(C(=O)c3ccc(F)cc3)C(c3ccc(F)cc3)C2)cc1 (centres undefined)
16.6 µM

Dear colleague, I am looking for the recorded GI50 of the following compound: CCN1CCN(C(=O)[C@]23CC[C@@H](C)[C@H](C)[C@@H]2C2=CC[C@@H]4[C@@]5(C)C/C(=C/c6ccncc6)C(=O)C(C)(C)[C@@H]5CC[C@@]4(C)[C@]2(C)CC3)CC1
1.32 µM

---

tested on: NCI-H460 lung; experiment: NCI tumour cell line growth inhibition, 48 h
Consider the following molecules; for each one, report its TGI.

Dear colleague, I am looking for the recorded TGI of the following molecule: O=C1c2ccccc2-c2cccc3ccc(Cc4ccc5ccccc5c4)c1c23
> 100 µM

Dear colleague, I am looking for the recorded TGI of the following molecule: COc1cc(OCc2nc3ccccc3n3cccc23)cc(OC)c1OC
> 100 µM

Dear colleague, I am looking for the recorded TGI of the following molecule: C=C(Cl)c1c(OC)cccc1OCc1ccccc1
> 100 µM

Dear colleague, I am looking for the recorded TGI of the following molecule: COc1cc(S(=O)(=O)Nc2nc(-c3ccc(N4C(=O)C(CC(=O)O)SC4c4ccccc4O)cc3)cs2)ccc1Cl (stereo unspecified)
> 100 µM

Dear colleague, I am looking for the recorded TGI of the following molecule: Cc1ccc2nc(CN3CCCC(O)C3)cc(=O)n2c1 (stereo unspecified)
> 100 µM

Dear colleague, I am looking for the recorded TGI of the following molecule: CC(=O)C(=[N+]=[N-])C(=O)NCC#N
> 10 µM

Dear colleague, I am looking for the recorded TGI of the following molecule: CN1C2CCC1CC(CCOC(c1ccc(F)cc1)c1ccc(F)cc1)C2 (stereo unspecified)
32.2 µM

Dear colleague, I am looking for the recorded TGI of the following molecule: OC1(CCc2ccccc2)COC(C(F)(F)F)(C(F)(F)F)C1 (stereo unspecified)
> 100 µM

Dear colleague, I am looking for the recorded TGI of the following molecule: COC(=O)c1cc2c(o1)Sc1ccccc1NC2=O
> 100 µM

Dear colleague, I am looking for the recorded TGI of the following molecule: COc1ccc2cc(CNCCCCCCCCCCCCNCc3ccc4cc(OC)ccc4c3)ccc2c1
35.8 µM

Dear colleague, I am looking for the recorded TGI of the following molecule: O=C1c2ccccc2-c2c1c1ccccc1c(=O)n2CCCNCCCn1ccnc1
43.1 µM
